Entries and their measured Activity follow.
- Test system: MDA-MB-231
- measurementProtocol: Induction of cell cycle arrest in human MDA-MB-231 cells assessed as increase in cell accumulation at […] phase at 40 uM after 48 hrs by flow cytometry
- Assay type: functional
Give the value in % but do not write % after it.

Answered examples (3):
{"compound": "CCNC(=O)NCCCCCCCCCCCCCCCCC(=O)O", "Activity, %": 6}
{"compound": "CC[C@@H]1O[C@@H]1CCCCCCCCCCCCCCCCCC(=O)O (relative stereo)", "Activity, %": 15}
{"compound": "CCNC(=O)NCCCCCCCCCCCCCCCC(=O)O", "Activity, %": 6}

Incoming: Item under review: CC[C@@H]1O[C@@H]1CCCCCCCCCCCCCCCC(=O)O (relative stereo) . Reported Activity?
Outgoing: 22

Incoming: Same again, this time with CCNC(=O)NCCCCCCCCCCCCCCCCCC(=O)O
Outgoing: 6

Incoming: Would you kindly repeat that for CC[C@H]1O[C@H]1CCCCCCCCCCCCCCCCC(=O)O (relative stereo) ?
Outgoing: 12

---

- assayedSystem: c-Jun N-terminal kinase, JNK (Homo sapiens) (UniProt P45983+P53779+P45984)
- measurementProtocol: Induction of JNK phosphorylation in human MDA-MB-231 cells at 40 uM after 48 hrs
- Type: cell-based
Calls of active or inactive are those of the source. The calls are words filed in the database; no cut-off is given here.
Choose the fitting class; nothing outside 1 (active), -1 (inactive) is accepted.

{"molecule": "CCNC(=O)NCCCCCCCCCCCCCCCC(=O)O", "assignedLabel": -1}
{"molecule": "CC[C@@H]1O[C@@H]1CCCCCCCCCCCCCCCC(=O)O (relative stereo)", "assignedLabel": 1}

Incoming: Test call for this molecule, please: CCNC(=O)NCCCCCCCCCCCCCCCCCC(=O)O
Outgoing: -1

---

- Tested on: MDA-MB-231
- measurementProtocol: Reduction in ATP production in human MDA-MB-231 cells assessed as ATP level at 40 uM after 48 hrs relative to untreated control
- Assay type: functional
- Set-up: scale not given: the % may be the effect or the level left
Calls of active or inactive are those of the source. The calls are words filed in the database; no cut-off is given here.
quantity: Activity

// solved cases for Activity follow
{"molecule": "CCNC(=O)NCCCCCCCCCCCCCCCCC(=O)O", "quantity": "Activity", "observedValue": "72%"}
{"molecule": "CCNC(=O)NCCCCCCCCCCCCCCCCCC(=O)O", "quantity": "Activity", "observedValue": "72%"}
{"molecule": "CCNC(=O)NCCCCCCCCCCCCCCCC(=O)O", "quantity": "Activity", "observedValue": "72%"}
{"molecule": "CC[C@@H]1O[C@@H]1CCCCCCCCCCCCCCCC(=O)O (relative stereo)", "quantity": "Activity", "observedValue": "45%"}
{"molecule": "CC(C)(C)NC(=O)NCCCCCCCCCCCCCCCC(=O)O", "quantity": "Activity", "observedValue": "inactive"}
{"molecule": "CCCCNC(=O)NCCCCCCCCCCCCCCCC(=O)O", "quantity": "Activity", "observedValue": "inactive"}

Incoming: Checklist item: Activity tested on MDA-MB-231, entry CCCNC(=O)NCCCCCCCCCCCCCCCC(=O)O , value?
Outgoing: inactive

---

- Test system: MDA-MB-231
- measurementProtocol: Reduction in cyclin D1 immunoreactive protein expression in human MDA-MB-231 cells assessed as cyclin D1 level at 40 uM after 48 hrs
- Type: functional
The source made the active and inactive calls. The rule behind the calls is not given here.
quantity: Activity

Example entries begin here.
{"compound": "CCNC(=O)NCCCCCCCCCCCCCCCC(=O)O", "observedValue": "inactive"}
{"compound": "CC[C@@H]1O[C@@H]1CCCCCCCCCCCCCCCCCC(=O)O (relative stereo)", "observedValue": "47%"}
{"compound": "CCNC(=O)NCCCCCCCCCCCCCCCCC(=O)O", "observedValue": "inactive"}
{"compound": "CC[C@@H]1O[C@@H]1CCCCCCCCCCCCCCCC(=O)O (relative stereo)", "observedValue": "23%"}
{"compound": "CC[C@H]1O[C@H]1CCCCCCCCCCCCCCCCC(=O)O (relative stereo)", "observedValue": "24%"}

We next turn to a different compound, shown below.
Incoming: Can you look up the measured Activity of CCNC(=O)NCCCCCCCCCCCCCCCCCC(=O)O for me?
Outgoing: inactive

---

- Test system: MDA-MB-231
- measurementProtocol: Induction of apoptosis in human MDA-MB-231 cells at 40 uM after 48 hrs by Annexin V-FITC and propidium iodide staining method
- Format: functional
Calls of active or inactive are those of the source. The rule behind the calls is not given here.
quantity: Activity

{"compound": "CCNC(=O)NCCCCCCCCCCCCCCCCCC(=O)O", "observedValue": "inactive"}
{"compound": "CC[C@@H]1O[C@@H]1CCCCCCCCCCCCCCCCCC(=O)O (relative stereo)", "observedValue": "inactive"}
{"compound": "CCNC(=O)NCCCCCCCCCCCCCCCCC(=O)O", "observedValue": "inactive"}
{"compound": "CCNC(=O)NCCCCCCCCCCCCCCCC(=O)O", "observedValue": "inactive"}

---

- assayedSystem: c-Jun N-terminal kinase, JNK (Homo sapiens) (UniProt P45983+P53779+P45984)
- measurementProtocol: Induction of JNK phosphorylation in human MDA-MB-231 cells at 40 uM after 48 hrs
- Format: cell-based
Active and inactive are the calls of the source. No cut-off for these calls is given here.
Respond with a class label; see active, inactive

Example results:
{"molecule": "CCNC(=O)NCCCCCCCCCCCCCCCCC(=O)O", "assignedLabel": "inactive"}
{"molecule": "CC[C@@H]1O[C@@H]1CCCCCCCCCCCCCCCCCC(=O)O (relative stereo)", "assignedLabel": "active"}

Incoming: Outcome logged for CC[C@H]1O[C@H]1CCCCCCCCCCCCCCCCC(=O)O (relative stereo) in this assay:
Outgoing: active

The origin of these recorded values is ChEMBL document CHEMBL3352675.
